# credit: the RNAGym collection of RNA variant scans (doi:10.7554/elife.80360)

B1: HDV Ribozyme (parent)
chain: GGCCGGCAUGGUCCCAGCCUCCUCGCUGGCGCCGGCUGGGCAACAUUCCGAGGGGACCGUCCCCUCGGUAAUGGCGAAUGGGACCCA

Variants of: B1
ASSAY_TEXT: self-cleavage, relative activity (ratio to wild type); higher = more cleavage; co-transcriptional
Decision: self-cleavage >= 0.06 yields rule met, all other cases yield rule not met.

The following variants have reported results that may help.
GACCGACAUGGUCCCAGCCUCCUCGCUGGCGCCGGCUGGGCAACAUUCCGAGGGGACCGUCCCCUCGGUAAUGGCGAAUGGGACCCA [G2A G6A] ... rule not met
GGCCGGCAUGGUCCCAGCCUCCUCGCUGUCGCCGGCUGGGCAACAUUCCGAGGGGACCGUCCCCUCGGUAAGGGCGAAUGGGACCCA [G29U U72G] ... rule not met
GGCCGGCAUGGUCCCAGCCUCCUCGCUGACGCCGGCUGGGCGACAUUCCGAGGGGACCGUCCCCUCGGUAAUGGCGAAUGGGACCCA [G29A A42G] ... rule not met
GGCCGGCAUGGUCCCAGCCUCCUCGCUGGCGCCGGCUGGGCAACAUUCCGAGGGGACCCUCCCCUCGCUAAUGGCGAAUGGGACCCA [G59C G68C] ... rule met
GGCCGGCAUGGUCCCAGCCUCCUCGCUGGCGCCGGCUGGGCAACAUUCCGAGGGGACCGUCCCCUCGGUAAUGCCGUAUGGGACCCA [G74C A77U] ... rule met

Now take the following variant into account.
Confirm if self-cleavage reported for the variant GGCCGGCAUGGUCCCAGCCUCCUCGCUGGCGCCGGCUGGGCUACAUUCCGAGGGGACCGUCCCCUCGGUAAUGGCGAAUAGGACCCA [A42U G80A] is 0.06 or above.
rule met
